All values here come from the NIST ThermoML archive (doi:10.1016/j.jct.2005.10.011).

# protocol_conditions: 298.15 K; 101.33 kPa; Liquid
value_kind: mass density (kg/m3)
Record the value in kg/m3, omitting the unit from your answer.

compound_smiles=CCCCCCCC measured_result=698.59

Incoming: Respond only with mass density recorded for `CCCCCCCCC`
Outgoing: 714.01

Incoming: Item `CCCCCC` : provide mass density
Outgoing: 655.07

Incoming: Consider the molecule `CCCCCCC` and give its recorded mass density.
Outgoing: 679.69

Incoming: Find the measured mass density of `Cc1ccccc1` and report it.
Outgoing: 862.19

Incoming: Provide only the value of recorded mass density for `CCCCCCCCCC`
Outgoing: 726.29

Incoming: Tell me mass density reported for `CCCCC`
Outgoing: 621.22

* * *

Reported values of viscosity for individual entries
# protocol_conditions: 298.15 K; 101.33 kPa; Liquid; Capillary tube (Ostwald / Ubbelohde) method
Please reply with the bare figure in mPa·s and do not write the unit itself.

Reference set, count: 6
compound="CCCCCCCC [octane]" endpoint_unit=mPa·s measured_result=0.514
compound="CCCCCCC [heptane]" endpoint_unit=mPa·s measured_result=0.395
compound="CCCCCCCCC [nonane]" endpoint_unit=mPa·s measured_result=0.665
compound="CCCCC [pentane]" endpoint_unit=mPa·s measured_result=0.216
compound="CCCCCC [hexane]" endpoint_unit=mPa·s measured_result=0.295
compound="CCCCCCCCCC [decane]" endpoint_unit=mPa·s measured_result=0.861

Would you kindly look at the next entry?
Incoming: Tell us which viscosity value is on record for Cc1ccccc1 [toluene]
Outgoing: 0.552

* * *

// reported isobaric coefficient of expansion per item
# test_method_notes: isobaric coefficient of expansion
# protocol_conditions: 298.15 K; 101.33 kPa; Liquid; vibrating tube densimeter

Incoming: # return recorded isobaric coefficient of expansion for input `Cc1ccccc1`
Outgoing: 0.00109 1/K

Incoming: State its isobaric coefficient of expansion for this compound: `CCCCCCCCC`
Outgoing: 0.00108 1/K

Incoming: Look up and report measured isobaric coefficient of expansion for this entry: `CCCCCC`
Outgoing: 0.00138 1/K

Incoming: Look up and report measured isobaric coefficient of expansion for this entry: `CCCCCCCCCC`
Outgoing: 0.00104 1/K

* * *

# test_method_notes: isobaric coefficient of expansion
# protocol_conditions: 298.15 K; 101.33 kPa; Liquid; vibrating tube densimeter
Quick reference: isobaric coefficient of expansion of the listed items.

compound="CCCCCCC [heptane]" measured_result="0.00124 1/K"
compound="CCCCC [pentane]" measured_result="0.0016 1/K"

Incoming: Supply isobaric coefficient of expansion value. Item: CCCCCCCC [octane]
Outgoing: 0.00115 1/K
